Data provenance is ChEMBL document CHEMBL1806492.

molecular target: Protein kinase C beta type (Homo sapiens)
Sequence (P05771 whole entry): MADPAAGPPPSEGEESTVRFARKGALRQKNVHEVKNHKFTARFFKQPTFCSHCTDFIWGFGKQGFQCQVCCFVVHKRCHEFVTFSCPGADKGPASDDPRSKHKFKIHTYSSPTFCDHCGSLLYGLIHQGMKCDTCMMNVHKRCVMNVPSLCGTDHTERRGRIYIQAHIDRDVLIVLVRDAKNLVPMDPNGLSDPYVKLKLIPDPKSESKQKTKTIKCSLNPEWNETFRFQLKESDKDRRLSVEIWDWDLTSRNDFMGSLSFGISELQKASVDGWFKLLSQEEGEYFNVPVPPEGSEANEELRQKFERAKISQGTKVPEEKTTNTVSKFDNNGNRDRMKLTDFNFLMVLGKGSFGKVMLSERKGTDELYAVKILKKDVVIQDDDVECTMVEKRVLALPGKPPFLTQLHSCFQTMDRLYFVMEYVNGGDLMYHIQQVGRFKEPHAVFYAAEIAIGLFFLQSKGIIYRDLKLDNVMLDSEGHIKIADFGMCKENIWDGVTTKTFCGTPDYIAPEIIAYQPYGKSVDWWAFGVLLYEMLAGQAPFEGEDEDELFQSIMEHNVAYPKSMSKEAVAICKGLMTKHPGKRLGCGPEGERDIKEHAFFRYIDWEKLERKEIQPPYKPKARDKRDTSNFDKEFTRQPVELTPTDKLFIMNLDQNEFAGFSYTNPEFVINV
TEST READOUT: pKi
Interpret pKi as the negative base-10 log of the concentration measured in mol/L.

Protein kinase C beta type (Homo sapiens) pKi of C=C[C@@]1(C)CC[C@](C)(C(C)C)c2cc3c4c(c[nH]c4c21)CC(=O)NC(=O)[C@H](C(C)C)N3C is 6.14

====

molecular target: Protein kinase C alpha type (Homo sapiens)
TEST READOUT: Ki (nM)
Respond numerically; units are nM and should not be typed.

Protein kinase C alpha type (Homo sapiens) Ki of C=C[C@@]1(C)CC[C@](C)(C(C)C)c2cc3c4c(c[nH]c4c21)CC(=O)NC(=O)[C@H](C(C)C)N3C is 600
